molecular target: human ether-à-go-go-related gene (hERG) potassium channel (human, UniProt Q12809); test: primary screen, population patch clamp on CHO cells stably expressing hERG; higher = less effect of the substance
Sequence (Q12809 whole entry, looked up): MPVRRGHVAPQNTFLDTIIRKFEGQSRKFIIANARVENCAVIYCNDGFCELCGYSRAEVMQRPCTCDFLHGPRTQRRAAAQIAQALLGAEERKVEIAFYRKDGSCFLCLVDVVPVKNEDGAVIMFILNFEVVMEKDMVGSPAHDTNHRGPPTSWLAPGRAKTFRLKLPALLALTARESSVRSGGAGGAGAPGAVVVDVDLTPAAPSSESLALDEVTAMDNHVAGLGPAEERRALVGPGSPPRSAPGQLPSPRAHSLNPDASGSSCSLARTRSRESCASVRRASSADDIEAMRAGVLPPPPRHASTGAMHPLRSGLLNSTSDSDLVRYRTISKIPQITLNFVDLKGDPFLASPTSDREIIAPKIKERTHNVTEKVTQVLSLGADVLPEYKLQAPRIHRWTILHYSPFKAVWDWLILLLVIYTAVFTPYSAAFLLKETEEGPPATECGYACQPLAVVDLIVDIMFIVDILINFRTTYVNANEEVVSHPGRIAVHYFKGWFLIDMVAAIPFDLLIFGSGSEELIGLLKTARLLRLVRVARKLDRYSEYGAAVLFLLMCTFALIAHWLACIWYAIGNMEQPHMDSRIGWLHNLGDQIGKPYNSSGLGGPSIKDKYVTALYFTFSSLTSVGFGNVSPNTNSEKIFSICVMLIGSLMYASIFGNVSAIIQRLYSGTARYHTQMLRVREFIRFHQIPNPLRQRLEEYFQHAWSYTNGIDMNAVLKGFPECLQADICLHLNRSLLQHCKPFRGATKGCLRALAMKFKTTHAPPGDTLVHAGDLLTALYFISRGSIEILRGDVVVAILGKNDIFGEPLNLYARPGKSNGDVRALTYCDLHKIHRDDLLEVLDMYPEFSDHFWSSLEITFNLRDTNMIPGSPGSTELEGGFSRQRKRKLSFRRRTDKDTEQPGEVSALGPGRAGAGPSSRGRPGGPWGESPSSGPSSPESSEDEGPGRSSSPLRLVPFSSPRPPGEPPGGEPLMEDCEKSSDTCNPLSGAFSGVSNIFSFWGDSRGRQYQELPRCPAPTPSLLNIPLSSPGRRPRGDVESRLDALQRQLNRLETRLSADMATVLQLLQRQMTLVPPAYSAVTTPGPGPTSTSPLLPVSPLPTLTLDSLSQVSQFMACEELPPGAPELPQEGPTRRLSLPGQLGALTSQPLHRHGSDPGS
Hit rate of the full screen: of about 310,000 compounds, about 14,000 (4.5%) showed an effect of 50% or more. The effect is printed as a negative number. Shown is part of a subset that was picked to be rich in strong results.
Could you please report measured hERG current change (%, negative = inhibition) at 10uM for the items listed next?
Numbers only, in %.

>>> df
                                   compound  units  endpoint_value
0  O=c1c2ccccc2ncn1-c1ccc(Cl)cc1[N+](=O)[O-]      %           -4.65
1  O=S(=O)(c1ccc(Cl)cc1Cl)N1CCCC1c1cccnc1 (centres unmarked)      %            7.32
2  O=c1c2ccccc2ncn1-c1ccc([N+](=O)[O-])cc1[N+](=O)[O-]      %            10.7

Below are 2 compounds. Give each one its hERG current change (%, negative = inhibition) at 10uM.
1. COc1ccc(C2C3(C#N)C(N)=NC(OC)(OC)C23C#N)cc1 (centres unmarked)
2. O=C(c1ccc([N+](=O)[O-])cc1[N+](=O)[O-])n1cnc2ccccc21

output:
-53.4
-16.4

###

molecular target: human ether-à-go-go-related gene (hERG) potassium channel (human, UniProt Q12809); assay: primary screen, population patch clamp on CHO cells stably expressing hERG; higher = less effect of the substance;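 also: peak tail current of the secondary pulse compared with the same well before compound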
Hit rate of the full screen: of about 310,000 compounds, about 14,000 (4.5%) showed an effect of 50% or more. Effects have a minus sign here. The full list was thinned out, with strong results kept by preference.
Experimental Readout: hERG current change (%, negative = inhibition) at 10uM (%)
One number for each entry, in %.

Before answering, review these 6 worked examples.
>>> df
                    structure_smiles_string                             target_entity  endpoint_value
0  CCCCc1n(CC(=O)c2ccc(Cl)cc2)c2ccccc2[n+]1C.[Br-]  human ether-à-go-go-related gene (hERG) potassium channel (human, UniProt Q12809)            8.02
1  CN(C)C(=O)Oc1cccc(OCc2n(C)c3ccccc3[n+]2C)c1.[Cl-]  human ether-à-go-go-related gene (hERG) potassium channel (human, UniProt Q12809)            14.7
2       CCOC(=O)C(CCCOc1cccc(OC)c1)C(=O)OCC  human ether-à-go-go-related gene (hERG) potassium channel (human, UniProt Q12809)           -14.9
3                 CCCCCCCCOc1ccc(C(=O)O)cc1  human ether-à-go-go-related gene (hERG) potassium channel (human, UniProt Q12809)            13.3
4         Cc1ccc(OCCCCn2c(CO)nc3ccccc32)cc1  human ether-à-go-go-related gene (hERG) potassium channel (human, UniProt Q12809)           -14.6
5  CCCCCCCCCCOC(=O)Cn1c(COc2cccc(OC)c2)[n+](C)c2ccccc21.[Cl-]  human ether-à-go-go-related gene (hERG) potassium channel (human, UniProt Q12809)           -76.7

State the recorded hERG current change (%, negative = inhibition) at 10uM for every item in the following list.
1. CCCCCCCCCCOC(=O)Cn1c(COc2ccc(C)cc2)[n+](C)c2ccccc21.[Cl-]
2. CCCCCCCCCCOC(=O)Cn1c(COc2ccc(Cl)cc2)[n+](C)c2ccccc21.[Cl-]
3. CCc1ccc(NC(=O)CNC(=O)[C@@H]2Cc3ccccc3CN2)cc1

output:
-74.9
-76.2
-19.9

input: Can you look up the measured hERG current change (%, negative = inhibition) at 10uM of COc1ccccc1CNC(=O)[C@H](Cc1c[nH]c2ccccc12)NC(=O)[C@@H]1Cc2ccccc2CN1 for me?
output: -16.5

###

molecular target: human ether-à-go-go-related gene (hERG) potassium channel (human); test: primary screen, population patch clamp on CHO cells stably expressing hERG; higher = less effect of the substance;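 also: peak tail current of the secondary pulse compared with the same well before compound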
Hit rate of the full screen: of about 310,000 compounds, about 14,000 (4.5%) showed an effect of 50% or more. The effect is printed as a negative number. Many of the other results were omitted from the sample, so strong results are more common in it than they were.
Please provide measured hERG current change (%, negative = inhibition) at 10uM for the entries that follow.
Answers are plain numbers, in %.

These recorded examples may help you get a feel for the data.
                                   molecule                             target_entity  units  endpoint_value
0        CCCNc1ccc(C(=O)OCC)cc1[N+](=O)[O-]  human ether-à-go-go-related gene (hERG) potassium channel (human)      %           -6.67
1  O=C(O)C(=O)O.O=[N+]([O-])c1ccc(S(=O)(=O)N2CCN(Cc3ccco3)CC2)cc1  human ether-à-go-go-related gene (hERG) potassium channel (human)      %            15.3
2      CCOc1ccc2nc(NCCNC(=O)C(C)C)c(C)cc2c1  human ether-à-go-go-related gene (hERG) potassium channel (human)      %             -61
3  Cc1ccc2c(c1)c1nnc(SCC(=O)N3CCN(c4ccc(F)cc4)CC3)nc1n2CC(=O)O  human ether-à-go-go-related gene (hERG) potassium channel (human)      %           -63.1

For each of the molecules below, state hERG current change (%, negative = inhibition) at 10uM.
1. CC(=O)Nc1ccc(C(=O)CS(=O)(=O)c2ccc(C)cc2)cc1
2. O=C1c2ccc(-c3ccc4c(c3)C(=O)N(CCO)C4=O)cc2C(=O)N1CCO
3. O=C(c1cccc(S(=O)(=O)NCCOc2ccccc2)c1)N1CCN(c2ncccn2)CC1
4. CCNC(=O)COc1ccc(-c2ccccc2)cc1
5. COc1ccc(N2CCN(C(=O)CSc3nnc4c5cc(C)ccc5n(C)c4n3)CC2)cc1

output:
1: -11.5; 2: 14.6; 3: -37.6; 4: -19.4; 5: -13.9

###

biological target: human ether-à-go-go-related gene (hERG) potassium channel (human, UniProt Q12809); test: primary screen, population patch clamp on CHO cells stably expressing hERG; higher = less effect of the substance;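 also: peak tail current of the secondary pulse compared with the same well before compound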
In all, about 310,000 compounds went through this assay and about 14,000 (4.5%) showed an effect of 50% or more. Effects have a minus sign here. The list comes from a sample in which strong results are over-represented; it also holds close analogues and randomly drawn compounds.
Experimental Readout: hERG current change (%, negative = inhibition) at 10uM (%)
Numbers only, in %.

Here is how some compounds turned out for hERG current change (%, negative = inhibition) at 10uM.
In [3]: df
Out[3]:
                    structure_smiles_string  units  endpoint_value
0  C=CCn1c(SCC(=O)N2CCN(c3ccccc3)CC2)nnc1-c1ccco1      %           -25.7
1          Cc1cc(C(=O)N2CCc3ccccc3C2)n[nH]1      %            5.11

Count: 5. Required value per item: hERG current change (%, negative = inhibition) at 10uM.
1. O=C(NC(=S)Nc1ccc(CN2CCOCC2)cc1)c1cc2ccccc2o1
2. O=C(Nc1ccc(N2CCCC2)cc1)c1ccc2ccccc2c1
3. O=C(Nc1ccc(CN2CCOCC2)cc1)c1cc2ccccc2o1
4. C=CCn1c(SCC(=O)C(C)(C)C)nnc1-c1cccs1
5. CN1CCN(c2ccc(NC(=O)c3ccc4ccccc4c3)cc2)CC1

output:
11.7
0.743
-50.2
-14.3
-66.1

###

Would you mind telling me the reported hERG current change (%, negative = inhibition) at 10uM of each entry?
biological target: human ether-à-go-go-related gene (hERG) potassium channel (human); experiment: primary screen, population patch clamp on CHO cells stably expressing hERG; higher = less effect of the substance;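 also: peak tail current of the secondary pulse compared with the same well before compound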
Out of some 310,000 compounds screened, about 14,000 (4.5%) showed an effect of 50% or more. The effect is printed as a negative number. What follows is part of a selection rich in strong results, with near analogues and random picks from the rest.
Answers are plain numbers, in %.

Example cases with answers are listed next.
                    structure_smiles_string  units  endpoint_value
0      CC(=O)COc1ccc2c3c(c(=O)oc2c1C)CCCCC3      %           -8.54
1  CCN(Cc1nc2cc(Cl)ccc2c(=O)[nH]1)C(=O)c1cccc(NC(=O)c2cccs2)c1      %           -24.7
2  COc1ccc(NC(=O)Cn2nnc(C(=O)NCc3ccc4c(c3)OCO4)c2N)c(OC)c1      %            18.1

The record that follows has no hERG current change (%, negative = inhibition) at 10uM shown yet.
input: Tell me the measured hERG current change (%, negative = inhibition) at 10uM of CCN1CCN(Cc2ccc(NC(=O)c3ccc(C)c(NC(=O)N4CCNC4=O)c3)cc2C(F)(F)F)CC1.O=C(O)C(F)(F)F , please.
output: 3.66
